Values were extracted from PubChem BioAssay (NCI).

Tested on: BT-549 breast
Assay: NCI-60 one-dose screen, 48 h
Conditions: 10 µM unless noted
The panel holds about 83,000 compounds, 20% with a hit somewhere; the sample as a whole holds those more often. Activity calls are given as the source filed them. The calls were made as follows: active = growth percent below 10; inactive = the rest.
Possible outcomes: active, inactive

[
  {
    "compound": "Cc1ccc(S(=O)(=O)Oc2cc(OS(=O)(=O)c3ccc(C)cc3)cc(OS(=O)(=O)c3ccc(C)cc3)c2)cc1",
    "class assignment": "inactive"
  },
  {
    "compound": "CCCCCCN(CCCCCC)c1ccc(/C=C2/SC(=O)N(c3nc(N4CCCC4)nc(N4CCCC4)n3)C2=O)c(C)c1",
    "class assignment": "inactive"
  },
  {
    "compound": "COc1ccc2nc(NNC(=O)c3cnccn3)c3cccn3c2c1",
    "class assignment": "inactive"
  },
  {
    "compound": "COc1cc2c(cc1-c1c(C)noc1C)ncc1nc(C3CCC(F)(F)CC3)n(C3CCC(OC(F)F)CC3)c12 (stereo not given)",
    "class assignment": "inactive"
  },
  {
    "compound": "Cn1cc2c(c1)-c1nc(Nc3ccccc3)ncc1CC2",
    "class assignment": "inactive"
  },
  {
    "compound": "COc1ccc(-c2nc(SCC(=O)Nc3nc(-c4ccccc4)cs3)[nH]c(=O)c2C#N)cc1",
    "class assignment": "inactive"
  },
  {
    "compound": "O=C(Nc1ccc(Cl)cc1)Nc1ccc(Cl)c(C(F)(F)F)c1",
    "class assignment": "inactive"
  },
  {
    "compound": "N#Cc1c2c(nn(-c3ccccc3)c1=O)C(O)=C([N+](=O)[O-])C(c1ccccc1)C2 (stereo not given)",
    "class assignment": "inactive"
  },
  {
    "compound": "O=C(Nc1ccc(-n2cc(-c3ccncc3)c(-c3ccc(Cl)c(O)c3)n2)cc1)N1CCOCC1",
    "class assignment": "inactive"
  },
  {
    "compound": "COc1ccccc1NC(=O)N/C(N)=N/c1nc2ccccc2s1",
    "class assignment": "inactive"
  },
  {
    "compound": "Cc1cc(NCc2cc(Nc3ccnc4cc(Cl)ccc34)ccc2F)nc(N2CCSCC2)n1",
    "class assignment": "inactive"
  },
  {
    "compound": "CC(=O)n1c(-c2ccc(Cl)cc2)nc2c(c1=O)C(c1ccc(Cl)cc1)c1sc3c(Cl)cccc3c1O2 (stereo not given)",
    "class assignment": "active"
  },
  {
    "compound": "COc1c(CCC[P+](c2ccccc2)(c2ccccc2)c2ccccc2)cc2c(c1OC)OCO2",
    "class assignment": "inactive"
  },
  {
    "compound": "N#CC1=C(NC=O)Oc2c(ccc3ccccc23)C1c1ccccc1 (stereo not given)",
    "class assignment": "inactive"
  },
  {
    "compound": "COc1cccc(-c2nc3sccn3c2-c2ccnc(NCCNS(=O)(=O)c3ccc(C(F)(F)F)cc3)c2)c1",
    "class assignment": "inactive"
  },
  {
    "compound": "Fc1cnc(NC2CC2)nc1-c1cnc2ccc(N3CCOCC3)cn12",
    "class assignment": "active"
  },
  {
    "compound": "NC(N)=Nc1nc2ccccc2n2c1nc1ccccc12",
    "class assignment": "inactive"
  },
  {
    "compound": "N=C1CCC(=N)c2c1c(O)c1ccccc1c2O",
    "class assignment": "inactive"
  },
  {
    "compound": "COc1ccc(C2CC(c3cccc(OC)c3)=NN2C(=O)c2cc(OC)c(OC)c(OC)c2)cc1 (stereo not given)",
    "class assignment": "inactive"
  },
  {
    "compound": "O=C(COc1ccc(/C=C2\\Oc3ccccc3C2=O)cc1)c1ccc(Cl)cc1",
    "class assignment": "inactive"
  }
]
